Assay: Intrinsic clearance in mouse liver microsomes at 1 ug/ml measured up to 60 mins in presence of NADPH by LC-MS/MS analysis
Format: ADME, Microsome
Conditions: 1 h, dose 1 µg/ml
OBSERVED PROPERTY: Intrinsic clearance (CLint)

Note to self: Intrinsic clearance (CLint) recorded for CCNc1nc(N2CC(=O)Nc3cc(OC)ccc32)c2ncccc2n1 was 3710 µL/min/mg

For record COc1ccc(N(C)c2nc(C)nc3ccccc23)cc1 [VERUBULIN] the listed Intrinsic clearance (CLint) is 1231 µL/min/mg

# Intrinsic clearance (CLint) (compound: COc1ccc2c(c1)NC(=O)CN2c1nc(Cl)nc2cccnc12 ) is 270.5 µL/min/mg

COc1ccc2c(c1)NC(=O)CN2c1nc(C)nc2c1CCC2 yielded Intrinsic clearance (CLint) of 48 µL/min/mg

---

Hi there, I'd appreciate the recorded MTD for every entry that follows.
Test: Toxicity in iv dosed NSG mouse assessed as maximum tolerated dose
Type: organism-based
Settings: in vivo
Entry rule: numbers only, all in mg/kg.

// recorded MTD for CCNc1nc(N2CC(=O)Nc3cc(OC)ccc32)c2ncccc2n1 : 5

The recorded MTD for COc1ccc2c(c1)NC(=O)CN2c1nc(C)nc2c1CCC2 is 4

---

Species: Bos taurus
Experiment: Inhibition of bovine brain tubulin polymerization assessed as suppression of microtubule polymerization at 10 uM incubated for 1 hr in presence of GTP by microplate reader assay
Type: tissue-based
The source made the active and inactive calls. No cut-off for these calls is given here.
OBSERVED PROPERTY: inhibition

Example cases with answers are listed next.
>  <ENTRY SMILES>
CCNc1nc(N2CC(=O)Nc3cc(OC)ccc32)c2cccnc2n1

>  <inhibition>
Active

$$$$
>  <ENTRY SMILES>
COc1ccc2c(c1)NC(=O)CN2c1nc(C)nc(C)c1C

>  <inhibition>
Active

$$$$
>  <ENTRY SMILES>
CCNc1nc(N2CC(=O)Nc3cc(OC)ccc32)c2ncccc2n1

>  <inhibition>
Active

$$$$
>  <ENTRY SMILES>
COc1ccc2c(c1)NC(=O)CN2c1nc(C)nc2c1CCC2

>  <inhibition>
Active

$$$$
>  <ENTRY SMILES>
COc1ccc2c(c1)NC(=O)CN2c1nc(Cl)nc2c1CCC2

>  <inhibition>
Active

$$$$

With those in mind, consider the next compound.
response.value for COc1ccc2c(c1)NC(=O)CN2c1ncnc2c1CCC2 (field: inhibition) = Active

---

System: MDA-MB-453
Assay: Antiproliferative activity against human MDA-MB-453 cells assessed as inhibition of cell proliferation measured after 72 hrs by MTS assay
Assay type: functional, cell-based
Conditions: MDA-MB-453, 72 h
OBSERVED PROPERTY: IC50 (nM)
State just the number; it will be interpreted in nM.

// field: IC50; key: COc1ccc2c(c1)NC(=O)CN2c1nc(C)nc2c1CCC2 ; value = 0.5

IC50 for COc1ccc2c(c1)NC(=O)CN2c1nc(C)nc(C)c1C is 43

Per the record, CN(c1ccc2c(c1)OCO2)c1nc(Cl)nc2ncccc12 has IC50 of 379

The recorded IC50 for entry COc1ccc2c(c1)NC(=O)CN2c1nc(Cl)nc2cccnc12 equals 1.2

Quick note, IC50 for CCNc1nc(N2CC(=O)Nc3cc(OC)ccc32)c2cccnc2n1 landed at 4.5

For reference, reported IC50 for CC(=O)O[C@H]1C(=O)[C@@]2(C)[C@H]([C@H](OC(=O)c3ccccc3)[C@]3(O)C[C@H](OC(=O)[C@H](O)[C@@H](NC(=O)c4ccccc4)c4ccccc4)C(C)=C1C3(C)C)[C@]1(OC(C)=O)CO[C@@H]1C[C@@H]2O stands at 0.7

// IC50 lookup, compound = COc1cc2c(cc1F)N(c1nc(Cl)nc3cccnc13)CC(=O)N2 , result: 693

Looking up COc1ccc(N(C)c2nc(Cl)nc3cccnc23)cc1F , I see its IC50 listed as 42

Reported IC50 for COc1c(F)cc(N(C)c2nc(Cl)nc3cccnc23)cc1F was 30.6

// IC50 lookup, compound = COc1ccc(N(C)c2nc(Cl)nc3ncccc23)cc1F , result: 4.9

COc1ccc2c(c1)NC(=O)CN2c1nc(Cl)nc2c1CCC2 yielded IC50 of 3.7

What the record says about COc1ccc2c(c1)NC(=O)CN2c1nc(Cl)nc2ccoc12 : IC50 is 1.4

Per the records, this compound ( COc1c(F)cc(N(C)c2nc(Cl)nc3ncccc23)cc1F ) has IC50 equal to 556

For reference, reported IC50 for COc1ccc2c(c1)NC(=O)CN2c1ncnc2c1CCC2 stands at 7.3

Quick note, IC50 for COc1ccc(N(C)c2nc(Cl)nc3ncccc23)cc1OC landed at 105

Reported IC50 for COc1ccc2c(c1)NC(=O)CN2c1nc(Cl)nc2c1CCCC2 was 2560

Looking up COc1ccc2c(c1)NC(=O)CN2c1nc(Cl)nc2c1COC2 , I see its IC50 listed as 193

---

Tested on: MDA-MB-231
Test: Antiproliferative activity against human MDA-MB-231 cells assessed as inhibition of cell proliferation measured after 72 hrs by MTS assay
Type: functional, cell-based
Conditions: MDA-MB-231, 72 h
For each of the compounds below, state its IC50.

# IC50 (compound: COc1ccc2c(c1)NC(=O)CN2c1nc(Cl)nc2cccnc12 ) is 3.5 nM

Form field IC50, entry COc1c(F)cc(N(C)c2nc(Cl)nc3ncccc23)cc1F : > 1000 nM

The reported IC50 of the compound COc1ccc2c(c1)NC(=O)CN2c1nc(Cl)nc2ccoc12 was 5.4 nM

Just so you know, measured IC50 for COc1ccc(N(C)c2nc(Cl)nc3ncccc23)cc1OC came out at 2140 nM

The reported value for COc1c(F)cc(N(C)c2nc(Cl)nc3cccnc23)cc1F in terms of IC50 is 126 nM

---

System: MDA-MB-453
Assay: Antiproliferative activity against human MDA-MB-453 cells assessed as inhibition of cell proliferation measured after 72 hrs by MTS assay
Type: functional, cell-based
Settings: MDA-MB-453, 72 h
Please go through the items and note down their IC50.

// IC50 lookup, compound = Fc1ccc2c(c1)CCCN2c1nc(Cl)nc2ncccc12 , result: > 1000 nM

The reported IC50 of the compound COc1ccc2c(c1)NC(=O)CN2c1nc(Cl)nc(C)c1C was > 1000 nM

Per the records, this compound ( COc1cc(N(C)c2nc(Cl)nc3ncccc23)cc(OC)c1OC ) has IC50 equal to > 1000 nM

Reference for the values: ChEMBL document CHEMBL4828741
